# Tested on: Escherichia coli TOP10;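 also: peptides expressed intracellularly from a pBAD plasmid library in pooled LB shake-flask culture, induced with 0.3% L-arabinose, DNA abundance read by NGS, three biological replicates, DESeq2 with apeglm shrinkage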
# Assay comment: shrunken log2 fold change of peptide-encoding DNA abundance (4.5 h post-induction vs induction); higher = less antimicrobial activity (less host growth inhibition)
# Test context: time post-induction: 4.5 h; library: site-saturation at positions 5, 18, 19, 20
We use -0.2 as the dividing line for shrunken log2 fold change: on or above the line is Met, below is Not met.

[[record]]
residue_sequence = "RRIRLRPPRLPRPRPRPFELPRP"
class_label = "Not met"

[[record]]
residue_sequence = "RRIRTRPPRLPRPRPRPFWYPRP"
class_label = "Not met"

[[record]]
residue_sequence = "RRIRFRPPRLPRPRPRPGYVPRP"
class_label = "Met"

[[record]]
residue_sequence = "RRIRYRPPRLPRPRPRPWNMPRP"
class_label = "Met"

[[record]]
residue_sequence = "RRIRNRPPRLPRPRPRPITFPRP"
class_label = "Met"

[[record]]
residue_sequence = "RRIRPRPPRLPRPRPRPDKYPRP"
class_label = "Not met"

[[record]]
residue_sequence = "RRIRGRPPRLPRPRPRPLFFPRP"
class_label = "Met"

[[record]]
residue_sequence = "RRIRDRPPRLPRPRPRPARFPRP"
class_label = "Met"

